assay: small-molecule microarray binders of probe aXIP, primary screen, biochemical, NeuroSMM set, 635/667 nm fluorescence (AID 1119); settings: higher = more signal, called active from +8 up or from −8 down;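 also: probe is the protein aXip251-270 applied at 1 µg/mL to compound-printed slides; binding of probe to printed compounds measured as 667 nm fluorescence plus signal to noise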
MEASUREMENT_TYPE: composite Z-score
Could you respond with only the numeric value?

Ask | I have this compound here, C=CCC(OC(C)=O)[C@@H]1[C@@H](N(Cc2ccc(-c3ccccc3)cc2)C(=O)Cc2ccc(F)cc2)c2cc(OCCCO)ccc2N1C(=O)c1ccc(-c2ccccc2)cc1 (stereo partly specified) , and I need its recorded composite Z-score.
Reply | -0.405

Ask | Can you look up the measured composite Z-score of COc1cc2c(cc1OC)CN(C(=O)[C@H]1[C@@H]3C(=O)O[C@@H](c4ccccc4)[C@@H](c4ccccc4)N3[C@@H](c3ccc(O)cc3)[C@]13C(=O)Nc1ccc(C#CC4=CCCCC4)cc13)CC2 for me?
Reply | 0.721

---

Reported composite z-score values for the following molecules.
target: E3 ubiquitin-protein ligase XIAP (Homo sapiens) (UniProt P98170); assay: XIAP binders, primary screen, biophysical, small-molecule microarray, fluorescence 635 nm (AID 1181); conditions: small-molecule microarray binding, higher = more signal;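 also: score merges 667 nm emission and signal to noise over triplicate slides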
Sequence (P98170 whole entry, looked up): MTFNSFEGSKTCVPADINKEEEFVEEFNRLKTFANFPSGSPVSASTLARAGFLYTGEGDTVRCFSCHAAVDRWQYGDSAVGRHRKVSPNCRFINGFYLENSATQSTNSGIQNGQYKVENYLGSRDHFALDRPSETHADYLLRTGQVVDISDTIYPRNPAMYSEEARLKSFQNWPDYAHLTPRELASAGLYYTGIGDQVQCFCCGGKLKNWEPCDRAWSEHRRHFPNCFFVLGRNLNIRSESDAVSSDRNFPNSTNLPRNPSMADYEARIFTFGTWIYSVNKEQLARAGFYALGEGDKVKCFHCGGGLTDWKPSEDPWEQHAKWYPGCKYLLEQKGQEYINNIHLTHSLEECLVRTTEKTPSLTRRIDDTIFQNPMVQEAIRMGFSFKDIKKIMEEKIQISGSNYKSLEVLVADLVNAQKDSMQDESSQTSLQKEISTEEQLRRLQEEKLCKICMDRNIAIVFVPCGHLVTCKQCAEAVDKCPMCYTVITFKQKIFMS
Enter a number only.

Recorded results for 2 molecules are shown here.
COCCCN1C(=O)[C@@]2(c3ccc([N+](=O)[O-])cc3)CC(=O)N(C3CCCCC3)[C@@H]2c2ccc(CO)cc21 | -0.37
O=C1O[C@@H](c2ccccc2)[C@@H](c2ccccc2)N2[C@@H](c3ccccc3OCCO)[C@]3(C(=O)Nc4ccc(C#CC5=CCCCC5)cc43)[C@@H](C(=O)Nc3nc4ccccc4s3)[C@H]12 | -0.234

Ask | Entry [N-]=[N+]=NCc1ccccc1[C@@H]1OC(c2ccc(OCCCO)cc2)=N[C@]1(CCS(=O)(=O)c1ccccc1)C(=O)NCCN1CCOCC1 : reported composite z-score = ?
Reply | 0.703

---

assay: inhibitors of hydroxyurea-induced Chk1 phosphorylation, primary screen, imaging, HeLa, phospho-Chk1 antibody, percent positive cells (AID 1186); settings: hydroxyurea-induced phospho-Chk1 immunofluorescence imaging, higher = more signal
// z-score lookup, one value per entry
Keep it simple and answer with nothing but the number.

Worked examples, 6 compounds total:
C=CCNC(=O)[C@H]1[C@@H]2C(=O)O[C@@H](c3ccccc3)[C@@H](c3ccccc3)N2[C@@H](c2ccccc2OCCO)[C@]12C(=O)Nc1ccc(C#CC3=CCCCC3)cc12 | -0.333
O=C1OCC=C[C@H]2OC34C=CCN(c5ccc6ccccc6c5)C(=O)[C@H]3N(CCCCCCO)C(=O)[C@@H]4[C@@H]12 (some centres not stated) | -0.261
CN1C(=O)C2C=CC(C(O)C3=C[C@H]4C[C@@H](C3)C4(C)C)N(Nc3ccccc3)C2C1=O (some centres not stated) | -0.556
COc1ccc([Si](C)(C)[C@@H]2[C@@H](CCO)O[C@]3(C(=O)N(Cc4ccc(N5C(=O)COc6ccccc65)cc4)c4ccccc43)[C@H]2C)cc1 | -0.591
O=C1[C@H]2C=C(Br)[C@H](C[C@@H]2OCCCCO)[C@@]12CO2 | -0.0513
C=CCN1C(=O)[C@@]2(O[C@@H](CCO)[C@H]([Si](C)(C)c3ccc(OC)cc3)[C@H]2C)c2cc(NC(=O)c3ccc(OC)cc3)ccc21 | -0.176

In the following, a different compound is considered.
Ask | // returns reported z-score for input COc1ccc([C@H]2OC[C@@H]3CC4(CC=CC4)C(=O)N32)cc1
Reply | 0.0257
